This listing pairs compounds with measured IC50.
- Tested on: MOLM-13 cells
- ASSAY_PROTOCOL: Cell viability assay (CellTiter-Glo) in MOLM-13 cells, alone or with gilteritinib
- Type: cell-based
- PROTOCOL_CONDITIONS: Homo sapiens, MOLM-13, 72 h, MOLM-13 cells, compound alone (without gilteritinib), three days, CellTiter-Glo; read-out: MOLM-13 IC50

Known results for compounds:
COMPOUND: O=C1CCC(N2C(=O)c3ccc(NCCCCCCn4cc(-c5cnc6ccccc6n5)c(C5CC5)n4)cc3C2=O)C(=O)N1 (stereo not drawn)
IC50: 100 to 1000 nM
//
COMPOUND: CN1C2CCC1CN(c1ccc3ncc(-c4cnn([C@H]5C[C@H](CCCNc6ccc7c(c6)C(=O)N(C6CCC(=O)NC6=O)C7=O)C5)c4)nc3c1)C2 (stereo partly drawn)
IC50: 10 to 100 nM
//
COMPOUND: O=C1CCC(N2C(=O)c3ccc(NCCCCCCn4cc(-c5nc6ccccc6nc5C(F)(F)F)cn4)cc3C2=O)C(=O)N1 (stereo not drawn)
IC50: > 1000 nM
//
COMPOUND: O=C1CCC(N2C(=O)c3ccc(NC[C@H]4C[C@H](n5cc(-c6cccc(NC7CCOCC7)n6)cn5)C4)cc3C2=O)C(=O)N1 (stereo partly drawn)
IC50: 100 to 1000 nM
//
COMPOUND: Cc1cccc(-c2cn([C@H]3C[C@H](CNc4ccc5c(c4)C(=O)N(C4CCC(=O)NC4=O)C5=O)C3)nc2C(=O)N(C)C)n1 (stereo partly drawn)
IC50: > 1000 nM

Next item in the queue.
Query: Which IC50 value belongs to O=C1CCC(N2C(=O)c3ccc(NC[C@H]4C[C@H](n5cc(C6CCCCC6O)c(C6CC6)n5)C4)cc3C2=O)C(=O)N1 (stereo partly drawn) ?
Response: 100 to 1000 nM

Cited source: patent US20240050428A1
